Below, each entry is listed with its recorded interaction score.
measurement.target: T1, P9A-bN
T1 chain: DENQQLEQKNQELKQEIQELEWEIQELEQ
procedure.summary: two-hybrid library CCNG1;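 note: natural log of median RNA to DNA barcode read ratio; higher means stronger binding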
Number, no unit, nothing else.

>>> endpoint_result("DEIQQLEQKNQELKQEIQELEWKNQELKQ [P7A-bN]")
-1.19
>>> endpoint_result("DKIQQLKQKIQELKQENQELEWENQELEQ [P4A-bN]")
-0.681
>>> endpoint_result("DKIQQLKQKNQELKQKNQELKWKIQELKQ [P2A-bN]")
-0.223

For the next question, use this binder.
# lookup: interaction score of DKIQQLKQENQELEQKIQELKWENQELEQ [P8A-bN]
-1.47
